# experimental-target: MBP-KRIPP11-His6 (Trypanosoma brucei)
# test-description: fluorescence anisotropy
# applied-conditions: DNA; FA: 20 mM Tris-HCl pH 7.5, 150 mM KCl, 5 mM MgCl2, 1 mM DTT, 20 nM RNA/DNA, 25 C; EMSA: same buffer with BSA and RNAsin, 150 nM RNA/DNA, 2% tris-glycine …
property-label: Kd (µM)
Give bare numbers, in µM.

Form: sequence = GGGGGGGGGGGG [dG12] ; Kd = 1.88
